Recorded IC50 values for a group of molecules are listed next.
System Name: p38a/MK2 (Homo sapiens (Human), UniProt P49137+Q16539)
Sequence (Q16539 whole entry): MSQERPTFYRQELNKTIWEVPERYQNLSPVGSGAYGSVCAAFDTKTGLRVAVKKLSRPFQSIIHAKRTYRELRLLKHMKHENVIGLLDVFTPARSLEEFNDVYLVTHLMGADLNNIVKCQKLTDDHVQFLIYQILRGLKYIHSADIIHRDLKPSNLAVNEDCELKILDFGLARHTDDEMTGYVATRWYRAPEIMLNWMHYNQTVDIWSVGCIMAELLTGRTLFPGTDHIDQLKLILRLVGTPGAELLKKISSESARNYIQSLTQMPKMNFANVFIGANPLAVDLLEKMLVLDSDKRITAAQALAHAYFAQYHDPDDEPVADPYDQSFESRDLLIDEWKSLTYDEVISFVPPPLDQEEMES
Sequence (P49137 46-400): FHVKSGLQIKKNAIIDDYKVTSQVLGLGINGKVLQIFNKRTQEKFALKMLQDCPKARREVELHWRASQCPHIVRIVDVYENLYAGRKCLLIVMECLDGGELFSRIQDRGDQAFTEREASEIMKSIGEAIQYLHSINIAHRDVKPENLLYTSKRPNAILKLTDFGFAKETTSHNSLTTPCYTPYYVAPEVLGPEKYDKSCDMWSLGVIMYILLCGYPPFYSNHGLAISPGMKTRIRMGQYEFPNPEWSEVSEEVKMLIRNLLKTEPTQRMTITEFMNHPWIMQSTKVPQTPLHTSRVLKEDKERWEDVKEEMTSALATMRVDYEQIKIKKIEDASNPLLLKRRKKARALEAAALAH
Test Method Notes: biochemical
Condition Summary: 10-point 1:3 dilution, top dose 1 μM; 10 μM ATP, 2 h incubation; read-out: p38a/MK2 (1 μM) Enzyme pIC50 (converted)
Form entry: value (nM) — number only.

{"Molecule": "Cc1cnc(-n2ccnc(C(C)(C)O)c2=O)cc1-n1c(C)cc(OCc2ncc(F)cc2F)c(Cl)c1=O (single isomer, unassigned) [Example 5A]", "Experimental Result": 2.51}
{"Molecule": "[2H]C([2H])(Oc1cc(C)n(-c2cc(-n3ccnc(C(C)(C)O)c3=O)ncc2C)c(=O)c1Cl)c1ncc(C)cc1F (single isomer, unassigned) [Example 28A]", "Experimental Result": 1}

Param readout= IC50; system= p38a/MK2 (Homo sapiens (Human), UniProt P49137+Q16539); entry= [2H]C([2H])(Oc1cc(C)n(-c2cc(-n3ccnc(C(C)(C)O)c3=O)ncc2C)c(=O)c1Cl)c1ncc(Cl)cc1F (single isomer, unassigned) [Example 20A] ; returns value.
1

---

System Name: p38a/MK2 (Homo sapiens (Human), UniProt P49137+Q16539)
Test Method Notes: biochemical
Condition Summary: 10-point 1:3 dilution, top dose 1 μM; 10 μM ATP, 2 h incubation; read-out: p38a/MK2 (1 μM) Enzyme pIC50 (converted)
Recorded IC50 values for a group of compounds are listed next.
Form entry: value (nM) — number only.

See these solved cases before continuing.
{"Compound": "[2H]C([2H])(Oc1cc(C)n(-c2cc(-n3ccnc(C(C)(C)O)c3=O)ncc2C)c(=O)c1Cl)c1ncc(F)cc1F (single isomer, unassigned) [Example 19A]", "IC50 (nM)": 1}
{"Compound": "Cc1cnc(-n2cccc(C(C)(C)O)c2=O)cc1-n1c(C)cc(OCc2ncc(F)cc2F)c(Cl)c1=O (single isomer, unassigned)", "IC50 (nM)": 2}

As a next step, examine the compound that follows.
Param readout= IC50; system= p38a/MK2 (Homo sapiens (Human), UniProt P49137+Q16539); entry= [2H]C([2H])(Oc1cc(C)n(-c2cc(-n3cccc(C(C)(C)O)c3=O)ncc2C)c(=O)c1Cl)c1ncc(Cl)cc1F (single isomer, unassigned) [Example 21A] ; returns value.
1.26

---

System Name: p38a/MK2 (Homo sapiens (Human), UniProt P49137+Q16539)
Test Method Notes: biochemical
Condition Summary: 10-point 1:3 dilution, top dose 1 μM; 10 μM ATP, 2 h incubation; read-out: p38a/MK2 (1 μM) Enzyme pIC50 (converted)
Text: Expression vectors of the recombinant MK2 and PRAK kinases were constructed by cloning of the codon optimized gene sequences of MK2 (Uniprot ID P49137, amino acid fragment F46-H400), or PRAK (Uniprot ID Q81W41, amino acid fragment M1-Q471) into pGEX-4T1 (GE) for over expression of these kinases with N-terminal GST-tag. […]
Readout Type: IC50

See these solved cases before continuing.
{"Compound": "Cc1cnc(-n2cccc(C3(O)CCC3)c2=O)cc1-n1c(C)cc(OCc2ncc(F)cc2F)c(Cl)c1=O (single isomer, unassigned) [Example 12B]", "IC50": "> 1000 nM"}
{"Compound": "Cc1cnc(-n2ccc(C)c(C(C)(C)O)c2=O)cc1-n1c(C)cc(OCc2ncc(F)cc2F)c(Cl)c1=O (single isomer, unassigned) [Example 15B]", "IC50": "> 1000 nM"}

Entry under review: COCc1cc(OCc2ncc(F)cc2F)c(Cl)c(=O)n1-c1cc(-n2cccc(C(C)(C)O)c2=O)ncc1C (single isomer, unassigned) [Example 3A] . Reported IC50?
6.31 nM

---

System Name: p38a/PRAK (Homo sapiens (Human))
Test Method Notes: biochemical
Condition Summary: 10-point 1:3 dilution, top dose 300 μM; 10 μM ATP, 2 h incubation; read-out: p38a/PRAK Enzyme pIC50 (converted)
Readout Type: IC50 (µM)
Form entry: value (µM) — number only.

See these solved cases before continuing.
{"Molecule": "Cc1cnc(-n2cccc(C(C)(C)CO)c2=O)cc1-n1c(C)cc(OCc2ncc(F)cc2F)c(Cl)c1=O (single isomer, unassigned) [Example 11A]", "IC50, µM": 5.01}
{"Molecule": "Cc1cnc(-n2ccc(C)c(C(C)(C)O)c2=O)cc1-n1c(C)cc(OCc2ncc(F)cc2F)c(Cl)c1=O (single isomer, unassigned) [Example 15A]", "IC50, µM": 2.51}

As a next step, examine the molecule that follows.
Entry under review: Cc1cnc(-n2ccnc(C(C)(C)O)c2=O)cc1-n1c(C)cc(OCc2ncc(F)cc2Cl)c(Cl)c1=O (single isomer, unassigned) [Example 24B] . Reported IC50?
5.01

---

System Name: p38a/PRAK (Homo sapiens (Human), UniProt Q16539)
Test Method Notes: biochemical
Condition Summary: 10-point 1:3 dilution, top dose 300 μM; 10 μM ATP, 2 h incubation; read-out: p38a/PRAK Enzyme pIC50 (converted)
Readout Type: IC50

See these solved cases before continuing.
{"Compound": "[2H]C([2H])(Oc1cc(C)n(-c2cc(-n3cccc(C(C)(C)O)c3=O)ncc2C)c(=O)c1Cl)c1ncc(F)cc1Cl (single isomer, unassigned) [Example 23B]", "IC50": "> 316 µM"}
{"Compound": "Cc1cnc(-n2cccc(C(C)(C)O)c2=O)cc1-n1c(C)nc(OCc2ncc(F)cc2F)c(Cl)c1=O (single isomer, unassigned) [Example 25B]", "IC50": "> 316 µM"}

Entry under review: Cc1cnc(-n2cccc(C(C)C)c2=O)cc1-n1c(C)cc(OCc2ncc(F)cc2F)c(Cl)c1=O (single isomer, unassigned) [Example 17A] . Reported IC50?
6.31 µM

Entry under review: [2H]C([2H])(Oc1cc(C)n(-c2cc(-n3ccnc(C(C)(C)O)c3=O)ncc2C)c(=O)c1Cl)c1ncc(Cl)cc1F (single isomer, unassigned) [Example 20B] . Reported IC50?
> 316 µM

Entry under review: [2H]C([2H])(Oc1cc(C)n(-c2cc(-n3cccc(C(C)(C)O)c3=O)ncc2C)c(=O)c1Cl)c1ncc(Cl)cc1F (single isomer, unassigned) [Example 21B] . Reported IC50?
> 316 µM

---

System Name: p38a/MK2 (Homo sapiens (Human), UniProt P49137+Q16539)
Test Method Notes: biochemical
Condition Summary: 10-point 1:3 dilution, top dose 1 μM; 10 μM ATP, 2 h incubation; read-out: p38a/MK2 (1 μM) Enzyme pIC50 (converted)
Readout Type: IC50 (µM)
Form entry: value (µM) — number only.

{"Molecule": "[2H]C([2H])(Oc1cc(C)n(-c2cc(-n3cccc(C(C)(C)O)c3=O)ncc2C)c(=O)c1Cl)c1ncc(F)cc1Cl (single isomer, unassigned) [Example 23A]", "System Name": "p38a/MK2 (Homo sapiens (Human), UniProt P49137+Q16539)", "Experimental Result": 0.00251}
{"Molecule": "[2H]C([2H])(Oc1cc(C)n(-c2cc(-n3ccnc(C(C)(C)O)c3=O)ncc2C)c(=O)c1Cl)c1ncc(F)cc1F (single isomer, unassigned) [Example 19B]", "System Name": "p38a/MK2 (Homo sapiens (Human), UniProt P49137+Q16539)", "Experimental Result": 0.794}
{"Molecule": "Cc1cnc(-n2cccc([C@@](C)(O)C3CC3)c2=O)cc1-n1c(C)cc(OCc2ncc(F)cc2F)c(Cl)c1=O (single isomer, unassigned) [Example 14B]", "System Name": "p38a/MK2 (Homo sapiens (Human), UniProt P49137+Q16539)", "Experimental Result": 0.00126}
{"Molecule": "Cc1cnc(-n2cccc(C3(O)CCC3)c2=O)cc1-n1c(C)cc(OCc2ncc(F)cc2F)c(Cl)c1=O (single isomer, unassigned) [Example 12A]", "System Name": "p38a/MK2 (Homo sapiens (Human), UniProt P49137+Q16539)", "Experimental Result": 0.0126}
{"Molecule": "[2H]C([2H])(Oc1cc(C)n(-c2cc(-n3ccc(F)c(C(C)(C)O)c3=O)ncc2C)c(=O)c1Cl)c1ncc(F)cc1F (single isomer, unassigned) [Example 26A]", "System Name": "p38a/MK2 (Homo sapiens (Human), UniProt P49137+Q16539)", "Experimental Result": 0.00251}
{"Molecule": "Cc1ncc(-n2cccc(C(C)(C)O)c2=O)cc1-n1c(C)cc(OCc2ncc(F)cc2F)c(Cl)c1=O (single isomer, unassigned) [Example 16A]", "System Name": "p38a/MK2 (Homo sapiens (Human), UniProt P49137+Q16539)", "Experimental Result": 0.2}

Entry under review: Cc1cnc(-n2cccc(C(C)(C)CO)c2=O)cc1-n1c(C)cc(OCc2ncc(F)cc2F)c(Cl)c1=O (single isomer, unassigned) [Example 11A] . Reported IC50?
0.00398

Entry under review: [2H]C([2H])(Oc1cc(C)n(-c2cc(-n3ccnc(C(C)(C)O)c3=O)ncc2C)c(=O)c1Cl)c1ncc(Cl)cc1F (single isomer, unassigned) [Example 20B] . Reported IC50?
0.316
